# target.under.test: T1, ZFP SBS#1491 (synthetic)
# T1 chain: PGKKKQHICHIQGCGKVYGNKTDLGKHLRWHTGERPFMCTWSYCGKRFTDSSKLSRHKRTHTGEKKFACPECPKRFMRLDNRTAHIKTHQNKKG
# assay.info: EMSA
# protocol.conditions: tags: MBP fusion
experimental.endpoint: Kd (nM)
Numbers only, in nM.

# Kd of AAGGGTTCA (dsDNA) DNA 1: AAGGGTTCA DNA 2: TGAACCCTT = 4.12
